# Experimental Details: Cyto-toxicity (MTT assay)
# Type: cell-based
# Experimental: On day 1 calculate the number of cells required for the assay and seed 3×10^4 cells in 200 μl per well. Weigh the compound and dissolve it in DMSO to get 10 mM stock which is further diluted to 3 mM and 1 mM. […] Add DMSO to controls in a way to obtain final concentration of solvent that is not greater than 1%. Incubate for 4 days in 5% CO2 incubator at 37° C. […] Add 200 μl of 0.1N acidic isopropanol to dissolve the crystals and read the plate at 590 nm. […]
Observation Type: viability at 4 days, 0.1 µM

Compound	viability at 4 days, 0.1 µM
Cc1ccc(C(=O)NC2(C(=O)N[C@@]34CC[C@]5(C)[C@H](CC[C@@H]6[C@@]7(C)CC[C@H](OC(=O)[C@H]8C[C@@H](C(=O)O)C8(C)C)C(C)(C)[C@@H]7CC[C@]65C)C3=C(C(C)C)C(=O)C4)CCC2)cn1 [Example 43]	26%

Moving on to another compound below.
Recorded viability at 4 days, 0.1 µM (compound Cc1ccc(C(=O)NC2(C(=O)N[C@@]34CC[C@]5(C)[C@H](CC[C@@H]6[C@@]7(C)CC[C@H](OC(=O)[C@H]8C[C@@H](C(=O)O)C8(C)C)C(C)(C)[C@@H]7CC[C@]65C)C3=C(C(C)C)C(=O)C4)CCCC2)cn1 [Example 47] ): 14%

----------
# Experimental Details: Cyto-toxicity (MTT assay)
# Assay type: cell-based
Observation Type: viability at 4 days, 0.1 µM (%)
Give the quantity in %, number only.

Solved entries:
CC(C)C1=C2[C@H]3CC[C@@H]4[C@@]5(C)CC[C@H](OC(=O)[C@H]6C[C@@H](C(=O)O)C6(C)C)C(C)(C)[C@@H]5CC[C@@]4(C)[C@]3(C)CC[C@@]2(NC(=O)C(C)(C)NC(=O)c2ccc(N)nc2)CC1=O 19
CC(C)C1=C2[C@H]3CC[C@@H]4[C@@]5(C)CC[C@H](OC(=O)[C@H]6C[C@@H](C(=O)O)C6(C)C)C(C)(C)[C@@H]5CC[C@@]4(C)[C@]3(C)CC[C@@]2(NC(=O)C(C)(C)NC(=O)c2cnccn2)CC1=O 35

Moving on to another compound below.
Recorded viability at 4 days, 0.1 µM (compound Cc1ccc(-c2nc3cc(C(=O)NC(C)(C)C(=O)N[C@@]45CC[C@]6(C)[C@H](CC[C@@H]7[C@@]8(C)CC[C@H](OC(=O)[C@H]9C[C@@H](C(=O)O)C9(C)C)C(C)(C)[C@@H]8CC[C@]76C)C4=C(C(C)C)C(=O)C5)ccc3[nH]2)cn1 ): 10

----------
# Experimental Details: Cyto-toxicity (MTT assay)
# Format: cell-based
Listing: viability at 4 days, 0.001 µM of selected compounds
Give the quantity in %, number only.

CC(C)C1=C2[C@H]3CC[C@@H]4[C@@]5(C)CC[C@H](OC(=O)[C@H]6C[C@@H](C(=O)O)C6(C)C)C(C)(C)[C@@H]5CC[C@@]4(C)[C@]3(C)CC[C@@]2(NC(=O)C(C)(C)NC(=O)c2cc(C(C)C)n[nH]2)CC1=O 81

Moving on to another compound below.
Recorded viability at 4 days, 0.001 µM (compound CC(C)C1=C2[C@H]3CC[C@@H]4[C@@]5(C)CC[C@H](OC(=O)[C@H]6C[C@@H](C(=O)O)C6(C)C)C(C)(C)[C@@H]5CC[C@@]4(C)[C@]3(C)CC[C@@]2(NC(=O)C(C)(C)NC(=O)c2ccc(N3CCOCC3)cc2)CC1=O ): 78
